# Tested on: IGROV1 ovarian
# METHOD_SUMMARY: NCI-60 one-dose screen, 48 h (100 = growth as untreated, 0 = no growth, -100 = all killed)
# MEASUREMENT_PARAMETERS: 10 µM unless noted
The panel holds about 83,000 compounds, 20% with a hit somewhere; the sample as a whole holds those more often.
# strict inequality: growth < 30% yields 1.0, everything else yields 0.0

Could you please tell me whether growth recorded for CCN1CCCC(Nc2cc(C)nc(/N=C(/N)Nc3ccc(Cl)c(Cl)c3)n2)C1 (stereo not drawn) is less than 30%?
1.0

Could you please tell me whether growth recorded for Nc1ccc(Oc2ccccc2)c(Cl)c1 is less than 30%?
0.0

Could you please tell me whether growth recorded for C/C(=N\NC(=S)N1CC2CCC(CC2)C1)c1ccccn1 is less than 30%?
1.0

Could you please tell me whether growth recorded for CN(C)CC(C)(CN(C)C)C(=O)/C=C/c1c(Cl)cccc1Cl is less than 30%?
0.0

Could you please tell me whether growth recorded for OC(c1cc(-c2ccc(Cl)cc2)nc2c(Cl)cccc12)C1CCCCN1 (stereo not drawn) is less than 30%?
1.0

Could you please tell me whether growth recorded for O=[N+]([O-])c1ccc(Oc2ccccc2Cl)c([N+](=O)[O-])c1 is less than 30%?
0.0

Could you please tell me whether growth recorded for CCCCCCCCc1cc(Cl)c(O)c(Cl)c1 is less than 30%?
0.0

----------
So I've got a bunch of compounds here, and I need their growth values.
# System: 786-0 renal
# METHOD_SUMMARY: NCI-60 one-dose screen, 48 h (100 = growth as untreated, 0 = no growth, -100 = all killed)
# MEASUREMENT_PARAMETERS: 10 µM unless noted
This is part of a sample that, as a whole, favours compounds with a hit. Of some 83,000 tested, about 20% had one in any assay.
Give just the number in %; leave the unit off.

Entry O=C1C=CC(=O)N1c1cc(Cl)c(Cl)cc1Cl : reported growth = ?
96

Entry O=C1C(=O)c2cc([N+](=O)[O-])ccc2-c2ccccc21 : reported growth = ?
-96.7

Entry O=Nc1ccc2ccccc2c1O : reported growth = ?
98

Entry CCCCC(CCc1ccc([N+](=O)[O-])cc1)(C(C)=O)C(=O)OCC (stereo not drawn) : reported growth = ?
98.2

Entry Oc1ccc2ccccc2c1N=Nc1ccccn1 : reported growth = ?
7.32

Entry Cc1oc2c(C)c3oc(=O)cc(C)c3cc2c1CCl : reported growth = ?
84.2

Entry COC1=CC(=O)c2c(O)c3c(c(O)c2C1=O)CC(C)(O)OC3 (stereo not drawn) : reported growth = ?
34

Entry O=C/C=C/c1ccc([N+](=O)[O-])cc1 : reported growth = ?
102

Entry NCCCN(CCCN)CCCNCc1c2ccccc2c(CNCCCN(CCCN)CCCN)c2ccccc12 : reported growth = ?
99.1

Entry O=C(NNc1ccccc1)OCc1ccccc1 : reported growth = ?
78.2

Entry O=C1C=C(Cl)C(=O)c2ccccc21 : reported growth = ?
110

Entry CC(=O)c1c(O)c(C)c(O)c2c1OC1=CC(=O)C(C(C)=O)C(=O)C12C (stereo not drawn) : reported growth = ?
69.9

Entry Oc1ccc(Cl)cc1Cc1cc(Cl)ccc1O : reported growth = ?
75.5

Entry CC(C)N=C(N)/N=C(\N)Nc1ccc2ccc3ccccc3c2c1 : reported growth = ?
-70.1

Entry COc1cc2c(c(OC)c1OC)-c1ccc(NCc3ccccc3)c(=O)cc1[C@@H](NC(C)=O)CC2 : reported growth = ?
21.9

Entry c1ccc2sc(SSN3CC4CCC(CC4)C3)nc2c1 : reported growth = ?
129

Entry N#CC(I)CS(=O)(=O)c1ccccc1 (stereo not drawn) : reported growth = ?
107

Entry COc1ccc2nc3cc([N+](=O)[O-])ccc3c(NNc3ccccc3)c2c1 : reported growth = ?
-18.8

Entry COc1ccc(C(Cn2ccnc2)Sc2ccc(Cl)c(Cl)c2)cc1 (stereo not drawn) : reported growth = ?
77.8

Entry O=[N+]([O-])CC(O)c1ccccc1 (stereo not drawn) : reported growth = ?
80.3

Entry Cc1cccc2c(N)c3ccccc3nc12 : reported growth = ?
-9.45

Entry O/N=C1\c2ccccc2-c2ccc(F)cc21 : reported growth = ?
104

Entry O=C(CCl)N1c2ccccc2Sc2c1ccc1ccccc21 : reported growth = ?
88.9

Entry CC(CSc1n[nH]c(=S)s1)c1ccccc1 (stereo not drawn) : reported growth = ?
111

Entry Cc1nc(Sc2nc3ccc([N+](=O)[O-])cc3s2)sc1C : reported growth = ?
19.6

Entry CC(=O)Nc1ccc(C(=O)CCl)cc1 : reported growth = ?
16.9

Entry CCCCCCCCCCCCCCCCSC(=NCC)NCC : reported growth = ?
11.1

Entry O=[N+]([O-])c1ccc(Oc2ccccc2Cl)c([N+](=O)[O-])c1 : reported growth = ?
83.7
